# Test system: MDA-MB-468 breast
# Protocol Description: NCI-60 one-dose screen, 48 h
# Test Parameters: 10 µM unless noted
Compounds without any hit were thinned out: in the full panel of roughly 83,000, 20% have a hit. Calls of active or inactive are those of the source. How the source made its calls: active means growth percent below 10; inactive means the rest.
// allowed return values: yes (1) = active, no (0) = inactive

Example cases with answers are listed next.
1) COc1cccc(-c2nc(-c3ccc(NS(=O)(=O)c4ccccc4)cc3)[nH]c2-c2ccnc(Br)c2)c1 :: no (0)
2) O=[N+]([O-])c1cc(/C=N/Nc2nc(N/N=C/c3ccc(Cl)c([N+](=O)[O-])c3)nc(N3CCCCC3)n2)ccc1Cl :: no (0)
3) O=C(Nc1ccc(OCC(=O)c2ccc(Cl)cc2)cc1)Nc1ccc(Cl)c(C(F)(F)F)c1 :: no (0)
4) CNC(=O)c1cc(Oc2ccc(NC(=O)c3nc(S(C)(=O)=O)n(C)c3-c3ccc(F)cc3)cc2)ccn1 :: no (0)
5) COc1ccc(OC)c(-n2cc(C#N)c(N)c2C(=O)c2ccc(Cl)cc2Cl)c1 :: no (0)

stdin: Please state the recorded outcome for this molecule: CN1C(=O)N(c2ccccc2)C2N=C(N/N=C/c3ccccc3)SC21 (stereo not given)
stdout: yes (1)

stdin: What classification did Nc1nc(-c2cc3c(cc2Cl)NC(=O)/C3=C/c2ccc(Cl)cc2)cs1 end up with in this test?
stdout: yes (1)

stdin: In this assay, the call recorded for CCN1C(=O)N(CC)C2C1NN=C1SCC(=O)N12 (stereo not given) was what?
stdout: no (0)

stdin: // outcome(item) with item = COc1ccc(-c2nc(/C=C3/C(=O)Nc4ccc(F)cc43)c3ccccn23)cc1
stdout: no (0)

----------
# Test system: MDA-MB-468 breast
# Protocol Description: NCI-60 one-dose screen, 48 h
# Test Parameters: 10 µM unless noted
About 83,000 compounds went through this panel and 20% of them were active in at least one assay; those are over-represented in the sample as a whole. Active and inactive are the calls of the source. How the source made its calls: active means growth percent below 10; inactive means the rest.
Thanks in advance; please answer with one of these: active, inactive

The following molecules have reported results that may help.
1) CCOC(=O)c1c(C)oc2ncnc(Nc3ccc(NC(=O)Nc4ccc(CC)cc4)cc3)c12 :: inactive
2) CC(C)(C)c1nn(-c2ccccc2)c2c1CC1(CN2Cc2ccc3c(c2)OCO3)C(=O)c2ccccc2C1=O :: inactive
3) O=C1Nc2cc(OC(F)(F)F)ccc2Oc2ccc(-c3ccnc(N4CCNCC4)c3)cc21 :: active

stdin: Recorded call for CC(=O)c1ccc2c3c(n(C)c2c1)CCCC3 ?
stdout: inactive

stdin: Write down the call the test reported for this molecule. Item: CCCCCCc1cc2cc(-c3csc(/C=C/c4ccccc4)n3)c(=O)oc2cc1O
stdout: active

stdin: Hello, I am checking results. What call was entered for CC(C)CCC(=O)[C@@H](C)[C@H]1[C@@H](OC2OCC(O)C(O)C2NS(C)(=O)=O)C[C@H]2[C@@H]3CC=C4C[C@@H](O)CC[C@]4(C)[C@H]3CC[C@]12C (some centres undefined) ?
stdout: inactive

stdin: # outcome recorded in this test, key = O=c1c(O)cccn1CCCNCCCN(CCCn1cccc(O)c1=O)CCCn1cccc(O)c1=O
stdout: inactive

stdin: What was the test verdict on CN(C)CC(C)(C)C(=O)/C=C/c1ccccc1 ?
stdout: active

stdin: Answer briefly: the call reported for COc1cccc(/C=N/NC(=O)c2ccccc2Nc2ccnc(C(F)(F)F)c2)c1O in this assay.
stdout: active

stdin: In this assay, the call recorded for Nc1nc(Nc2ccccc2SSc2ccccc2Nc2nc(N)nc(-c3cccs3)n2)nc(-c2ccsc2)n1 was what?
stdout: inactive
